Test system: CDK7
Settings: Compound Concentration (nM):1000;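 further: KINOMEscan scanMAX binding as percent activity remaining versus control; lower means stronger binding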
assay readout: Percent Control (%)

• O=C(Nc1n[nH]c2nc(-c3ccc(O)cc3)c(Br)cc12)C1CC1 = 19
• COc1cc(N2CCN(C(C)C)CC2)ccc1Nc1nc(Nc2ccc(F)cc2C(=O)NC[C@@H](O)CO)c2cc[nH]c2n1 [GSK1392956A] = 93
• C/C(Nc1ccc(S(N)(=O)=O)cc1)=C1/C(=O)Nc2ccccc21 [GW335962X] = 74
• CN(C)c1cc2c(Nc3ccc4c(cnn4Cc4ccccc4)c3)ncnc2cn1 [GW282974X] = 82
• C[C@@H](Oc1cc(-n2cnc3ccc(OC4CCN(C)CC4)cc32)sc1C(N)=O)c1ccccc1Cl [GSK579289A] = 70
• Cc1cc(O)cc(C)c1/C=C/c1cncc(C(N)=O)c1 [GW435821X] = 100

---

Tested on: RET(V804L)
Details: Compound Concentration (nM):1000
Response field label: string, one of condition met (Percent Control strictly below 90%) or condition not met.

* C/C(Nc1ccc(S(N)(=O)=O)cc1)=C1/C(=O)Nc2ccccc21 [GW335962X] | condition not met
* Cl.O=S1CCN(Cc2ccc(-c3ccc4ncnc(Nc5ccc(OCc6ccccc6)c(F)c5)c4c3)o2)CC1 [GW576924A] | condition not met
* Cl.c1ccc(Cc2nc3ccc(Nc4ncnc5ccccc45)cc3[nH]2)cc1 [GR269666A] | condition not met
* Cc1cc(O)cc(C)c1/C=C/c1cncc(C(N)=O)c1 [GW435821X] | condition not met
* COc1cc(/C=N/Nc2ncnc3[nH]ncc23)ccc1O [GW578748X] | condition met
* CCS(=O)(=O)c1ccc(OC)c(Nc2ncc(-c3cccc(F)c3)o2)c1 [GW621970X] | condition met
* COc1cc(N2CCN(C(C)C)CC2)ccc1Nc1nc(Nc2ccc(F)cc2C(=O)NC[C@@H](O)CO)c2cc[nH]c2n1 [GSK1392956A] | condition met
* COc1cc(C)c(N(C)C(=O)CN(C)C)cc1Nc1nc(Nc2cccc(F)c2C(N)=O)c2cc[nH]c2n1 [GSK2219385] | condition not met
* COc1cccc(-c2c[nH]c3c(N/N=C/c4ccncc4)ncnc23)c1 [GW814408X] | condition not met

---

System: TRKA
Construct: gene NTRK1
Details: Compound Concentration (nM):1000
Percent Control listing for selected compounds.
assay readout: Percent Control (%)

• COc1ccc2c(-c3ccnc(Nc4cccc(OC(F)(F)F)c4)n3)cnn2n1 [GW810372X] = 55
• COc1cc(C)c(N(C)C(=O)CN(C)C)cc1Nc1nc(Nc2cccc(F)c2C(N)=O)c2cc[nH]c2n1 = 87
• O=C(Nc1n[nH]c2nc(-c3ccc(O)cc3)c(Br)cc12)C1CC1 = 65
• NS(=O)(=O)c1ccc(N/N=C2\C(=O)Nc3ccc(Cl)cc32)cc1 [GW280670X] = 43
• Cl.O=S1CCN(Cc2ccc(-c3ccc4ncnc(Nc5ccc(OCc6ccccc6)c(F)c5)c4c3)o2)CC1 [GW576924A] = 100
• COc1cc(C=NNc2ncnc3c2cnn3-c2ccccc2)ccc1O [GW513184X] = 66
• O=C1Nc2ccc(C(=O)c3ccco3)cc2C1=Cc1cc(Cl)c(O)c(Cl)c1 [GW406108X] = 33
• NS(=O)(=O)c1ccc(Nc2ncc(-c3ccccc3)o2)cc1 [GW572399X] = 55
• Cc1cc(O)cc(C)c1/C=C/c1cncc(C(N)=O)c1 [GW435821X] = 98
• CCc1ccc(Oc2nccc(-c3c(-c4ccc(F)cc4)ncn3C3CCNCC3)n2)cc1 = 86
• C/C(Nc1ccc(S(N)(=O)=O)cc1)=C1/C(=O)Nc2ccccc21 [GW335962X] = 7.9
• CC1=C(C(=O)Nc2ccc3[nH]ncc3c2)C(c2ccc3ccccc3c2)CC(=O)N1 (stereo not drawn) [GSK270822A] = 66
• Nc1ncnc2occ(-c3ccc(NC(=O)Nc4cc(C(F)(F)F)ccc4F)cc3)c12 [GW770249X] = 3
• COc1ccccc1-c1cc(/C=C2\C(=O)Nc3ncc(Br)cc32)cc(Br)c1O [GW442130X] = 7.2
• NS(=O)(=O)c1ccc(N/N=C2\C(=O)Nc3ccc(-c4cnco4)cc32)cc1 = 15
• CCS(=O)(=O)c1ccc(OC)c(Nc2ncc(-c3cccc(F)c3)o2)c1 [GW621970X] = 11
• CC1=C(C(=O)Nc2ccc3[nH]ncc3c2)C(c2ccc(Cl)c(Cl)c2)CC(=O)N1 (stereo not drawn) [GSK299115A] = 72
• COc1ccc2cc(-c3c(-c4ccncc4)nc(-c4ccc(S(C)(=O)=O)cc4C)n3C)ccc2c1 = 73

---

Percent Control listing for selected molecules.
Tested on: HASPIN
Construct: gene GSG2
Settings: Compound Concentration (nM):1000
assay readout: Percent Control

* CCS(=O)(=O)c1ccc(OC)c(Nc2ncc(-c3cccc(F)c3)o2)c1 [GW621970X] | 79%
* COc1ccc2cc(-c3c(-c4ccncc4)nc(-c4ccc(S(C)(=O)=O)cc4C)n3C)ccc2c1 | 94%
* Nc1ncnc2occ(-c3ccc(NC(=O)Nc4cc(C(F)(F)F)ccc4F)cc3)c12 [GW770249X] | 100%
* COc1cccc(-n2ncc3c(N/N=C/c4ccncc4)ncnc32)c1 [GW784752X] | 75%
* CN(C)c1cc2c(Nc3ccc4c(cnn4Cc4ccccc4)c3)ncnc2cn1 [GW282974X] | 82%

---

Test system: BUB1
Conditions: Compound Concentration (nM):1000
assay readout: Percent Control (%)

- CN(C)CCNC(=O)Nc1ccc(N(C)c2ccnc(Nc3ccc(CS(C)(=O)=O)cc3)n2)cc1.Cl [GW830900A]: 55
- CCc1ccc(Oc2nccc(-c3c(-c4ccc(F)cc4)ncn3C3CCNCC3)n2)cc1: 73
- Cl.c1ccc(Cc2nc3ccc(Nc4ncnc5ccccc45)cc3[nH]2)cc1 [GR269666A]: 100
- Cl.O=C(O[C@H]1CN[C@H](C#Cc2cc3ncnc(Nc4ccc5c(cnn5Cc5ccccc5)c4)c3s2)C1)N1CCOCC1 [GSK200398A]: 45
- Cc1cc(O)cc(C)c1/C=C/c1cncc(C(N)=O)c1 [GW435821X]: 100
- NS(=O)(=O)c1ccc(Nc2ncc(-c3ccccc3)o2)cc1 [GW572399X]: 80
- COc1ccccc1-c1cc(/C=C2\C(=O)Nc3ncc(Br)cc32)cc(Br)c1O [GW442130X]: 73
- O=C1Nc2ccc(C(=O)c3ccco3)cc2C1=Cc1cc(Cl)c(O)c(Cl)c1 [GW406108X]: 50
- C[C@@H](Oc1cc(-n2cnc3ccc(OC4CCN(C)CC4)cc32)sc1C(N)=O)c1ccccc1Cl [GSK579289A]: 88
- COc1cc(/C=N/Nc2ncnc3[nH]ncc23)ccc1O [GW578748X]: 23
- COc1ccc2cc(-c3c(-c4ccncc4)nc(-c4ccc(S(C)(=O)=O)cc4C)n3C)ccc2c1: 33
- NS(=O)(=O)c1ccc(N/N=C2\C(=O)Nc3ccc(C(=O)NCc4ccncc4)cc32)cc1 [GW300657X]: 49
- COc1cc(N2CCN(C(C)C)CC2)ccc1Nc1nc(Nc2ccc(F)cc2C(=O)NC[C@@H](O)CO)c2cc[nH]c2n1 [GSK1392956A]: 88
- COc1cccc(-n2ncc3c(N/N=C/c4ccncc4)ncnc32)c1 [GW784752X]: 77

---

Test system: SGK2
Details: Compound Concentration (nM):1000
Percent Control listing for selected molecules.
assay readout: Percent Control

- CN(C)c1cc2c(Nc3ccc4c(cnn4Cc4ccccc4)c3)ncnc2cn1 [GW282974X]: 99%
- COc1cc(N2CCN(C(C)C)CC2)ccc1Nc1nc(Nc2ccc(F)cc2C(=O)NC[C@@H](O)CO)c2cc[nH]c2n1 [GSK1392956A]: 100%
- COc1cccc(-n2ncc3c(N/N=C/c4ccncc4)ncnc32)c1 [GW784752X]: 83%
- Cl.O=C(O[C@H]1CN[C@H](C#Cc2cc3ncnc(Nc4ccc5c(cnn5Cc5ccccc5)c4)c3s2)C1)N1CCOCC1 [GSK200398A]: 97%
- Cl.O=C(Nc1ccc(Oc2ccc3[nH]c(NC(=O)c4ccco4)nc3c2)cc1)Nc1cc(C(F)(F)F)ccc1F [GW683134A]: 100%
- CCc1ccc(Oc2nccc(-c3c(-c4ccc(F)cc4)ncn3C3CCNCC3)n2)cc1: 100%
- Cl.c1ccc(Cc2nc3ccc(Nc4ncnc5ccccc45)cc3[nH]2)cc1 [GR269666A]: 100%
- COc1cc2ncn(-c3cc(O[C@H](C)c4ccccc4Cl)c(C(N)=O)s3)c2cc1OC [GSK237701A]: 87%
- C/C(Nc1ccc(S(N)(=O)=O)cc1)=C1/C(=O)Nc2ccccc21 [GW335962X]: 71%
- NS(=O)(=O)c1ccc(N/N=C2\C(=O)Nc3ccc(-c4cnco4)cc32)cc1: 76%
- COc1cccc(-c2c[nH]c3c(N/N=C/c4ccncc4)ncnc23)c1 [GW814408X]: 38%
- CCS(=O)(=O)c1ccc(OC)c(Nc2ncc(-c3cccc(F)c3)o2)c1 [GW621970X]: 100%
- NS(=O)(=O)c1ccc(N/N=C2\C(=O)Nc3ccc(Cl)cc32)cc1 [GW280670X]: 100%
- COc1ccc2c(-c3ccnc(Nc4cccc(OC(F)(F)F)c4)n3)cnn2n1 [GW810372X]: 100%
- COc1ccc(COc2ccc(Cc3cnc(N)nc3N)cc2OC)cc1 [GW632580X]: 95%
- Cl.O=C(Nc1ccc(Oc2ccc3[nH]c(NC(=O)c4ccccc4)nc3c2)cc1)Nc1cc(C(F)(F)F)ccc1F [GW709042A]: 100%
- NS(=O)(=O)c1ccc(Nc2ncc(-c3ccccc3)o2)cc1 [GW572399X]: 93%
- COC(=O)Nc1nc2ccc(Oc3ccc(NC(=O)Nc4cc(C(F)(F)F)ccc4F)cc3)cc2s1.Cl [GW693917A]: 80%
- Cc1cc(O)cc(C)c1/C=C/c1cncc(C(N)=O)c1 [GW435821X]: 100%
- Nc1ncnc2occ(-c3ccc(NC(=O)Nc4cc(C(F)(F)F)ccc4F)cc3)c12 [GW770249X]: 100%
- COc1ccccc1-c1cc(/C=C2\C(=O)Nc3ncc(Br)cc32)cc(Br)c1O [GW442130X]: 85%
- Cl.O=S1CCN(Cc2ccc(-c3ccc4ncnc(Nc5ccc(OCc6ccccc6)c(F)c5)c4c3)o2)CC1 [GW576924A]: 100%
- CN1CCN(C(=O)c2ccc(NC(=O)Nc3ccc(N(C)c4ccnc(Nc5ccc(CS(C)(=O)=O)cc5)n4)cc3)cc2)CC1.Cl [GW830263A]: 73%
- COc1ccc2cc(-c3c(-c4ccncc4)nc(-c4ccc(S(C)(=O)=O)cc4C)n3C)ccc2c1: 59%
- CCS(=O)(=O)c1ccc(OC)c(Nc2ncc(-c3cccc(OC)c3)o2)c1 [GW580509X]: 100%
- COc1cc2ncnc(Nc3ccc4c(cnn4Cc4ccccc4)c3)c2cc1OC.Cl [GW282449A]: 100%
